Each entry below carries its reported growth.
Tested on: NCI-H226 lung
procedure-text: NCI-60 one-dose screen, 48 h (100 = growth as untreated, 0 = no growth, -100 = all killed)
particulars: 10 µM unless noted
Compounds without any hit were thinned out: in the full panel of roughly 83,000, 20% have a hit.
attribute-measured: growth (%)

compound: CCc1cc(C)cc(O)c1
attribute-measured: growth
observed-result: 99.4
//
compound: N#CC(C#N)N=Nc1cc(Cl)ccc1Cl
attribute-measured: growth
observed-result: 104
//
compound: OCC1OC(O)C(O)C(O)C1O (stereo not drawn)
attribute-measured: growth
observed-result: 113
//
compound: Brc1ccc(SSc2ccc(Br)cc2)cc1
attribute-measured: growth
observed-result: 93.7
//
compound: Fc1ccc([I+]c2ccc(F)cc2)cc1
attribute-measured: growth
observed-result: 71.8
//
compound: COc1ccc(Nc2ccc3ccccc3c2)cc1
attribute-measured: growth
observed-result: 81
//
compound: O=c1n(CC2CO2)c(=O)n(CC2CO2)c(=O)n1CC1CO1 (stereo not drawn)
attribute-measured: growth
observed-result: 80.1
//
compound: Cl
attribute-measured: growth
observed-result: 105
//
compound: COc1cc(C(O)C2C(=O)OCC2C2(c3ccc4c(c3)OCO4)SCCCS2)cc(OC)c1OC (stereo not drawn)
attribute-measured: growth
observed-result: 100
//
compound: CC1=C/C(O)CC(=O)Cc2nc(co2)C(=O)N2CCC=C2C(=O)OC(C(C)C)C(C)/C=C\C(=O)NC/C=C\1 (stereo not drawn)
attribute-measured: growth
observed-result: 82.9
//
compound: COc1ccc2cc1Oc1ccc(cc1)C[C@H]1c3cc(c(OC)cc3CCN1C)Oc1c(OC)c(OC)cc3c1[C@H](C2)N(C)CC3
attribute-measured: growth
observed-result: 113
//
compound: Nc1nc(N)c2[nH]cnc2n1
attribute-measured: growth
observed-result: 102
//
compound: CCCCNc1ccc(Nc2ccccc2)cc1
attribute-measured: growth
observed-result: 73.3

* * *

Tested on: BT-549 breast
procedure-text: NCI-60 one-dose screen, 48 h (100 = growth as untreated, 0 = no growth, -100 = all killed)
particulars: 10 µM unless noted
This is part of a sample that, as a whole, favours compounds with a hit. Of some 83,000 tested, about 20% had one in any assay. Activity calls are given as the source filed them. How the source made its calls: active means growth percent below 10; inactive means the rest.
Parameter: growth. Scope: all listed entries.
attribute-measured: growth

compound: CC(=O)Nc1ccc(S(N)(=O)=O)cc1
target-or-system: BT-549 breast
observed-result: 104% (inactive)

compound: NN1CCOC(c2ccccc2)C1 (centres undefined)
target-or-system: BT-549 breast
observed-result: 102% (inactive)

compound: CC[C@H](CC[C@@H](C)[C@H]1CC[C@H]2[C@@H]3CC=C4C[C@@H](O)CC[C@]4(C)[C@H]3CC[C@]12C)C(C)C
target-or-system: BT-549 breast
observed-result: 100% (inactive)

compound: O=CN1CCCCC1
target-or-system: BT-549 breast
observed-result: 97.3% (inactive)

compound: O=C1CSC2=NCCN12
target-or-system: BT-549 breast
observed-result: 131% (inactive)

compound: C#CCOC(=O)Nc1ccccc1
target-or-system: BT-549 breast
observed-result: 106% (inactive)

compound: CC(C)NC(=O)N/C=C(\C#N)C(N)=O
target-or-system: BT-549 breast
observed-result: 92.1% (inactive)

compound: CC(=O)NCC(=O)c1ccc([N+](=O)[O-])cc1
target-or-system: BT-549 breast
observed-result: 107% (inactive)

compound: c1ccc(CNCCNCc2ccccc2)cc1
target-or-system: BT-549 breast
observed-result: 107% (inactive)

compound: NC(=O)NCCCC(N)C(=O)O (centres undefined)
target-or-system: BT-549 breast
observed-result: 95.7% (inactive)

compound: CC1(C)COC(=S)N1
target-or-system: BT-549 breast
observed-result: 102% (inactive)

compound: O=[N+]([O-])c1cccc(SSc2cccc([N+](=O)[O-])c2)c1
target-or-system: BT-549 breast
observed-result: 101% (inactive)

compound: ClCCOCCOc1ccc(C2CCCCC2)cc1
target-or-system: BT-549 breast
observed-result: 95% (inactive)

compound: c1ccc(-c2nc3ccccc3s2)cc1
target-or-system: BT-549 breast
observed-result: 96.8% (inactive)
